Values compiled from PubChem BioAssay (Tox21).

Assay: A CellTox Green Cytotoxicity Assay to monitor cytotoxicity in HepG2 cells - 16 hour (AID 1224876); further: nearly all actives have a fitted effect of over 45% in size
Conditions: CellTox Green fluorescence; series mostly up to 76.8 µM
Records with an inconclusive call do not appear. Activity calls are given as the source filed them. The call rests on the fitted dose curve; in most records, active means well fitted activation curve with a large enough effect in the repeat runs; inconclusive means weak or mixed curves; inactive means flat fitted curve, though single readings scatter.
Give one outcome, nothing more. List: active, inactive

Nc1nc(N)nc(-c2cc(Cl)ccc2Cl)n1 = inactive
CCCCCCOC(=O)C(C)CC (configuration not stated) = inactive
CCCCCC/C=C\CCCCCCCC(=O)O = inactive

[in] Test call, this compound: CCCNCCC
[out] inactive

[in] What do you get for CCCCCCCCCCC[C@@H](C[C@@H]1OC(=O)[C@H]1CCCCCC)OC(=O)[C@H](CC(C)C)NC=O ?
[out] inactive

[in] Same question, C=CC(C)(CCC=C(C)C)OC=O (configuration not stated) this time
[out] inactive

[in] Check CC(C)NC[C@@H](O)COc1ccc(CC(N)=O)cc1 too.
[out] inactive

[in] Please do the same for O=C1CCc2ccc(OCCCCN3CCN(c4cccc(Cl)c4Cl)CC3)cc2N1 as well.
[out] inactive

* * *

Test: qHTS assay to identify small molecule that activate the aryl hydrocarbon receptor (AhR) signaling pathway - cell viability counter screen (AID 743086);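 further: HepG2 liver cells carrying the AhR DRE luciferase reporter; nearly all actives have a fitted effect of over 45% in size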
Settings: HepG2-AhR-luc viability, CellTiter-Fluor, 24 h; series mostly up to 70.3 µM
Results filed as inconclusive are left out. Calls of active or inactive are those of the source. Calls come from the whole dose curve; as a rule, active = well fitted cell-killing curve with a large enough effect in the repeat runs; inconclusive = weak or mixed curves, or effect the other way; inactive = flat fitted curve, though single readings scatter.
Use one of these outcomes when replying: 1 for active, -1 for inactive

Record excerpt, results attached:
[Cl][Pt-2]([Cl])([Cl])[Cl] = -1
NC[C@H]1O[C@H](O[C@H]2[C@H](O[C@@H]3O[C@H](CO)[C@@H](O)[C@H]3O)C(O)[C@H](N)C[C@@H]2N)[C@H](N)[C@@H](O)[C@@H]1O (stereo not given in full) = -1
c1ccsc1 = -1

[in] Which result was noted for this molecule in the test: COc1ccc(-c2coc3cc(O)ccc3c2=O)cc1
[out] -1

[in] Same for CCO[Si](OCC)(OCC)OCC
[out] -1

[in] Now the same for Cc1cc(C)c(/C=C2\C(=O)Nc3ccccc32)[nH]1
[out] -1

[in] What would you report for COc1ccc(NC(=O)CC(C)=O)cc1 ?
[out] -1

* * *

Experiment: Human pregnane X receptor (PXR) small molecule agonists, qHTS cell viability counter screen (AID 1346977); further: nearly all actives have a fitted effect of over 50% in size
Details: PXR-Luc HepG2 viability, CellTiter-Fluor, 24 h; series mostly up to 92.4 µM
Text: U.S. Tox21 Program National Center for Advancing Translational Sciences [NCATS] NIH Chemical Genomics Center [NCGC] U.S. Environmental Protection Agency [EPA] National Institutes of Environmental Health Sciences [NIEHS] National Toxicology Program [NTP] U.S. Food and Drug Administration [FDA] […]
Records with an inconclusive call do not appear. Activity calls are given as the source filed them. The call rests on the fitted dose curve; in most records, active means well fitted cell-killing curve with a large enough effect in the repeat runs; inconclusive means weak or mixed curves, or effect the other way; inactive means flat fitted curve, though single readings scatter.
Output constraint: value belongs to label 1 = active, label 0 = inactive

OC1CCC(C2CCCCC2)CC1 (configuration not stated) = label 0
CCOc1ccc2ccccc2c1C(=O)N[C@@H]1C(=O)N2[C@@H]1SC(C)(C)[C@@H]2C(=O)O = label 0
O=C(O)c1cccc(C(F)(F)F)c1 = label 0
CC(C)OC(=O)C(O)(CC(=O)O)CC(=O)O = label 0
COC(=O)Nc1nc2ccc(C(=O)c3ccccc3)cc2[nH]1 = label 0

[in] Field: outcome | Entry: CCCCN(CCCC)CC(O)c1cc(Cl)cc2c1-c1ccc(Cl)cc1/C2=C/c1ccc(Cl)cc1 (configuration not stated)
[out] label 1

[in] What do you get for [Cu+] ?
[out] label 0

[in] Same thing, different compound: Nc1nc2c(ncn2COCCO)c(=O)[nH]1
[out] label 0
